System: MM133 melanoma cell line
protocolDetails: Cell proliferation, crystal violet assay, MM133
Type: cell-based
assayConditions: Homo sapiens, V600K, read-out: IC50 (μM) vemurafenib
resultType: IC50 (µM)
Respond numerically; units are µM and should not be typed.

Return reported IC50; argument: CCCS(=O)(=O)Nc1ccc(F)c(C(=O)c2c[nH]c3ncc(-c4ccc(Cl)cc4)cc23)c1F [vemurafenib]
2

Values were extracted from patent US20170165240A1.
